Target: Pantothenate kinase, putative (Plasmodium falciparum (isolate 3D7), UniProt Q8ILP4)
Sequence (Q8ILP4 whole entry): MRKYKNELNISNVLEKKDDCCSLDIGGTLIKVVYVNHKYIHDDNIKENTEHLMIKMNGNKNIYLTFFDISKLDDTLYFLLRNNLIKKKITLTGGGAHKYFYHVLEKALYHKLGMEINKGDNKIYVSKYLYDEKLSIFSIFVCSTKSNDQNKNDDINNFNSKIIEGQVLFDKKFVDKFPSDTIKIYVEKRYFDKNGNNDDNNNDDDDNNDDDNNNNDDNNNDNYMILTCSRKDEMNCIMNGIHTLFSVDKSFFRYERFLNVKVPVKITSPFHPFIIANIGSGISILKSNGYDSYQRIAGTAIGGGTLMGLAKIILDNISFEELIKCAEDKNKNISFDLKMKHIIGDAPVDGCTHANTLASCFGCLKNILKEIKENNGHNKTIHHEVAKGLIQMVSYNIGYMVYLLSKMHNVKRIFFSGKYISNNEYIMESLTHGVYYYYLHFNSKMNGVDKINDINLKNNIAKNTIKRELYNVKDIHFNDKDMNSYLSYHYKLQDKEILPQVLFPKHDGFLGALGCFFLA
Test: Inhibition of pantothenate kinase in Plasmodium falciparum 3D7 trophozoites using [14C]pantothenate as substrate after 15 mins by TopCount scintillation counting method
# IC50 listing for each entry below
readout: IC50 (µM)

INSERT INTO assay_data (smiles_entry, readout, units_label, endpoint_result) VALUES
  ('CC(C)(CO)[C@@H](O)C(=O)N/C=C/C(=O)OCc1ccccc1', 'IC50', 'µM', 0.14),
  ('CC(C)(CO)[C@@H](O)C(=O)N/C=C/C(=O)O', 'IC50', 'µM', 14);

###

Each entry below carries its reported inhibition at 96 h, 100 µM.
test: Cytotoxicity against HEK293 cells assessed as inhibition of cell proliferation at 100 uM after 96 hrs by CellTiter-Glo assay relative to control; assay type: cell-based; conditions: human
readout: inhibition at 96 h, 100 µM (%)

INSERT INTO results (smiles_entry, units_label, endpoint_result) VALUES
  ('CCOC(=O)/C=C\NC(=O)[C@H](O)C(C)(C)CO', '%', -6),
  ('CC(C)(C)OC(=O)/C=C\NC(=O)[C@@H](O)C(C)(C)CO', '%', -11),
  ('COC(=O)/C=C/NC(=O)[C@@H](O)C(C)(C)CO', '%', -2),
  ('CC(C)(CO)[C@H](O)C(=O)N/C=C/C(=O)OCc1ccccc1', '%', -6),
  ('CC(C)(CO)[C@@H](O)C(=O)N/C=C/C(=O)OCc1ccccc1', '%', 5),
  ('CC(C)(CO)[C@@H](O)C(=O)N/C=C/C(=O)O', '%', -17),
  ('CCOC(=O)/C=C/NC(=O)[C@H](O)C(C)(C)CO', '%', -5),
  ('COC(=O)/C=C\NC(=O)[C@@H](O)C(C)(C)CO', '%', -12),
  ('CC(C)(CO)[C@H](O)C(=O)N/C=C\C(=O)O', '%', -11),
  ('CC(C)(CO)[C@H](O)C(=O)N/C=C\C(=O)OCc1ccccc1', '%', -7),
  ('CC(C)(C)OC(=O)/C=C/NC(=O)[C@H](O)C(C)(C)CO', '%', -1);

Attribution: ChEMBL document CHEMBL4138249
